Below, each entry is listed with its recorded PBM 8-mer E-score.
test system: MvaT; assay: PBM 8-mer E-score (mean of HK and ME arrays) (E-score (dimensionless, -0.5 to 0.5)); higher = stronger relative binding preference
Over roughly 33,000 sequences, “E-score (dimensionless, -0.5 to 0.5)” has its median near -0.058; the highest 2% begin near 0.35. Only a selection was taken, and the highest values are over-represented in it overall.
Give the figure by itself; no unit, no explanation.

Use the examples below as a reference point.
RESIDUE SEQUENCE: CCAATGAC
PBM 8-mer E-score: -0.153

RESIDUE SEQUENCE: ATTCCGGA
PBM 8-mer E-score: 0.138

Reported PBM 8-mer E-score, sequence AACAACTC : ____ 0.185

Can you check CGCTTAGA next? -0.0246

Can you check CGATAGTC next? -0.0515

Can you check AAGCTCTA next? -0.217

Can you check AACAACTA next? 0.335

Can you check ATGTTAAT next? 0.39

Can you check CAATTCTA next? 0.109

---

test system: MvaT; assay: PBM 8-mer E-score (mean of HK and ME arrays) (E-score (dimensionless, -0.5 to 0.5)); higher = stronger relative binding preference
The full ranking holds about 33,000 sequences; the median of “E-score (dimensionless, -0.5 to 0.5)” is about -0.058, and the highest 2% start at about 0.35. The sample holds the highest values, similar sequences and a random draw of the others, so the mix is not that of the screen.
Below, each entry is listed with its recorded PBM 8-mer E-score.
Give the figure by itself; no unit, no explanation.

Use the examples below as a reference point.
RESIDUE SEQUENCE: CGGTAAGC
OBSERVATION TYPE: PBM 8-mer E-score
VAL: -0.0976
--
RESIDUE SEQUENCE: CGTTATAG
OBSERVATION TYPE: PBM 8-mer E-score
VAL: 0.2
--
RESIDUE SEQUENCE: GTATACAA
OBSERVATION TYPE: PBM 8-mer E-score
VAL: 0.319

Reported PBM 8-mer E-score, sequence GAATGCGA : ____ 0.0642

Can you check CGTTATAA next? 0.39

Can you check CGTATTAA next? 0.35

Can you check TACCTCAA next? 0.05

Can you check GCTCTTGA next? -0.154

Can you check TTCCAGAA next? 0.055

Can you check TTATACAA next? 0.359

---

Below, each entry is listed with its recorded PBM 8-mer E-score.
system: MvaT; test: PBM 8-mer E-score (mean of HK and ME arrays) (E-score (dimensionless, -0.5 to 0.5)); higher = stronger relative binding preference
In all, about 33,000 sequences were measured (“E-score (dimensionless, -0.5 to 0.5)”: median about -0.058, highest 2% from about 0.35 on). The sample holds the highest values, similar sequences and a random draw of the others, so the mix is not that of the screen.
Give the figure by itself; no unit, no explanation.

RESIDUE SEQUENCE: TACATAAA
OBSERVATION TYPE: PBM 8-mer E-score
VAL: 0.307

RESIDUE SEQUENCE: ATAACATC
OBSERVATION TYPE: PBM 8-mer E-score
VAL: 0.302

RESIDUE SEQUENCE: TACATATA
OBSERVATION TYPE: PBM 8-mer E-score
VAL: 0.402

RESIDUE SEQUENCE: AACATATG
OBSERVATION TYPE: PBM 8-mer E-score
VAL: 0.254

RESIDUE SEQUENCE: ATAACATG
OBSERVATION TYPE: PBM 8-mer E-score
VAL: 0.235

Reported PBM 8-mer E-score, sequence AACATATC : ____ 0.286

Can you check GATTTTTA next? 0.133

Can you check CATTTATC next? 0.241

Can you check AGTTTATA next? 0.424

Can you check AACATATA next? 0.419

Can you check AAAACATA next? 0.354
